Molecular target: Human Polymorphonuclear Leukocyte Elastase (Homo sapiens, UniProt P08246)
Sequence (P08246 30-267): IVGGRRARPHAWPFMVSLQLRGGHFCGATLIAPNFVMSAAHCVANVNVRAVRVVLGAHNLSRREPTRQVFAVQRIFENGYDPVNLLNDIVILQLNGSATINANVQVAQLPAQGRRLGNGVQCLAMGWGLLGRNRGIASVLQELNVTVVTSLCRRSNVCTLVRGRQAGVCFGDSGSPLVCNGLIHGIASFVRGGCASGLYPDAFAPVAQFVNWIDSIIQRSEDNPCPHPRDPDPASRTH
Assay: Inhibition of human polymorphonuclear leukocyte elastase via hydrolysis of Boc-AAPAN or Boc-AAPVN
Format: biochemical
Conditions: pH 7.5, Table I; second order rate constant for inactivation of the enzyme; read-out: Kobs /[I]
Procedure: Enzyme Assays for the Inhibition of Human Polymorphonuclear Leukocyte Elastase Via Hydrolysis of N-t-Boc-alanyl-alanyl-prolylalanine-p-nitroanilide (Boc-AAPAN) or […] (Boc-AAPVN) Reagent: […] To 1.0 ml of 0.2 mM Boc-AAPAN in a cuvette, 0.01-0.1 ml of DMSO with or without inhibitor was added. […] 0.05 Milliliters of PMN extract was then added and the ΔOD/min at 410 mμ was measured and recorded. […]
Given measured kinact/KI, output Criterion met if it is greater than or equal to 700000 M⁻¹ s⁻¹ and Criterion not met if not.

Answered examples (4):
**Q:** Please indicate if the recorded kinact/KI for CCC[C@@H](NC(=O)N1C(=O)C(CC)(CC)[C@@H]1Oc1ccc([C@H](C)N(C)CCOC)cc1)c1ccc(C)cc1 [R4=Me; R5=CH2 CH2 OMe; R6=(S)--Me] meets or exceeds 700000 M⁻¹ s⁻¹.
**A:** Criterion not met

**Q:** Please indicate if the recorded kinact/KI for CCC[C@@H](NC(=O)N1C(=O)C(CC)(CC)[C@@H]1Oc1ccc(C(C)N2CCOCC2)cc1)c1ccc(C)cc1 (some centres unmarked) meets or exceeds 700000 M⁻¹ s⁻¹.
**A:** Criterion not met

**Q:** Please indicate if the recorded kinact/KI for CCC[C@@H](NC(=O)N1C(=O)C(CC)(CC)[C@@H]1Oc1ccc(C(C)NCCO)cc1)c1ccc(C)cc1 (some centres unmarked) meets or exceeds 700000 M⁻¹ s⁻¹.
**A:** Criterion not met

**Q:** Please indicate if the recorded kinact/KI for CCC[C@@H](NC(=O)N1C(=O)C(CC)(CC)[C@@H]1Oc1ccc(Cn2ccnc2)cc1)c1ccc(C)cc1 meets or exceeds 700000 M⁻¹ s⁻¹.
**A:** Criterion met

Continuing:
**Q:** Please indicate if the recorded kinact/KI for CCC[C@@H](NC(=O)N1C(=O)C(CC)(CC)[C@@H]1Oc1ccc(CN2CCC[C@H]2CO)cc1)c1ccc(C)cc1 [R4+R5=--CH2 CH2 CH2 CH(S--CH2 OH); R6=H] meets or exceeds 700000 M⁻¹ s⁻¹.
**A:** Criterion met

----------
Biological target: Human Polymorphonuclear Leukocyte Elastase (Homo sapiens, UniProt P08246)
Test: Inhibition of human polymorphonuclear leukocyte elastase via hydrolysis of Boc-AAPAN or Boc-AAPVN
Assay type: biochemical
Settings: pH 7.5, Table I; second order rate constant for inactivation of the enzyme; read-out: Kobs /[I]
parameter_measured: kinact/KI (M⁻¹ s⁻¹)
Numbers only, in M⁻¹ s⁻¹.

Can you give me kinact/KI for all of these, one by one?
1. CCC[C@@H](NC(=O)N1C(=O)C(CC)(CC)[C@@H]1Oc1ccc(CN(C)CCOc2ccccc2)cc1)c1ccc(C)cc1
2. CCC[C@@H](NC(=O)N1C(=O)C(CC)(CC)[C@@H]1Oc1ccc(C(C)N(CC)CCOC)cc1)c1ccc(C)cc1 (stereo partly shown)
3. CCC[C@@H](NC(=O)N1C(=O)C(CC)(CC)[C@@H]1Oc1ccc(CN(C)CCOCCOC)cc1)c1ccc(C)cc1
4. CCC[C@@H](NC(=O)N1C(=O)C(CC)(CC)[C@@H]1Oc1ccc(CNC(C)=O)cc1)c1ccc(C)cc1

**A:**
1: 750000; 2: 600000; 3: 1.9e+06; 4: 750000
